Hello, the source for this data is patent US20190241669A1, in case you need it.

# Study system: T1, cynomolgus monkey BCMA (cynomolgus monkey, UniProt A0A2K5UD97 1-53)
# T1 construct: Soluble analyte in SPR; construct not described; also called cyBCMA; Cyno BCMA
# T1 sequence (A0A2K5UD97 entry or part of it): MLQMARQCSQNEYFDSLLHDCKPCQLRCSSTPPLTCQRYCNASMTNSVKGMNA
# Test summary: SPR, IgG on chip, cyBCMA analyte
Each entry below carries its reported kon.
Measure: kon (M⁻¹ s⁻¹)

>>> obs_value("COMBO_Rd4_0.6nM_C04 (antibody, V domains shown, IgG) VH: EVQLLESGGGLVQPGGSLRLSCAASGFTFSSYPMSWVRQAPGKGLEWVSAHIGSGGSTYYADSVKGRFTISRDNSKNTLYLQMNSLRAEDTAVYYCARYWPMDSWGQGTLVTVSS VL: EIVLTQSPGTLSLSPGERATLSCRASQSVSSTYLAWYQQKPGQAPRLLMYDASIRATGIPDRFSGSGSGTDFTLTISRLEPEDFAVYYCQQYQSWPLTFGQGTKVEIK")
"3.52e+06"
>>> obs_value("A02_Rd4_0.6nM_C18 (antibody, V domains shown, IgG) VH: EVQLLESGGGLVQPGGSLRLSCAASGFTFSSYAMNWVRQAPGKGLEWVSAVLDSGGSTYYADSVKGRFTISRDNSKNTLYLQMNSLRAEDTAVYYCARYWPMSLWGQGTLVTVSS VL: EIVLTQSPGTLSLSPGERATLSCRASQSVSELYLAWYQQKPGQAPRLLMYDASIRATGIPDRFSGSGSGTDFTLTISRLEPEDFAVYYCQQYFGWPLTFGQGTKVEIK")
"3.24e+06"
